Entry source: patent US20260200928A1

# log10 of IC50 measurements, system: human IL-17A (Homo sapiens)
Units before log transform: µM; reported quantity: IC50; transform: log10.

# example entries with known answers
Ask: Notebook entry, human IL-17A (Homo sapiens) assay: log10 of IC50 of COCC(c1ccnc(NC(=O)[C@@H](NC(=O)c2nccn2C)[C@H]2CC[C@H](C)CC2)c1)N1C[C@@H](C(F)(F)F)NC1=O (single isomer, unassigned) [Example 112] = ?
Reply: -0.42

Ask: Request body: readout log10 of IC50, system human IL-17A (Homo sapiens), query COCC(c1ccnc(NC(=O)[C@@H](NC(=O)c2ccnn2C)C2CCC(C)CC2)c1)N1C[C@@H](C(F)(F)F)NC1=O (some centres unmarked) [Example 76] . Return the value.
Reply: -1.03

New cases:
Ask: Which log10 of IC50 is reported with human IL-17A (Homo sapiens) for this entry: CCc1nocc1C(=O)NC(C(=O)Nc1cc(C(NC(=O)CCC(F)(F)F)C2CC2)ccn1)C1CCC(F)(F)CC1 (centres unmarked) [Example 49] ?
Reply: -0.11

Ask: What measured log10 of IC50 is associated with CCc1nonc1C(=O)N[C@H](C(=O)Nc1cc(C(COC)N2C[C@@H](C(F)(F)F)NC2=O)ccn1)[C@H]1CC[C@H](C)CC1 (single isomer, unassigned) [Example 88] on human IL-17A (Homo sapiens)?
Reply: -2.40

Ask: Please tell me: log10 of IC50 of CCn1nccc1C(=O)NC(C(=O)Nc1cc(C[C@H]2C[C@@H](C(F)(F)F)NC2=O)ccn1)C(C1CC1)C1CC1 (stereo in doubt) [Example 230] , system human IL-17A (Homo sapiens)?
Reply: -1.02

Ask: Record lookup: for human IL-17A (Homo sapiens), what log10 of IC50 belongs to C[C@H]1CC[C@H]([C@H](NC(=O)NCc2ccccc2)C(=O)Nc2cc(CN3C[C@@H](C(F)(F)F)NC3=O)ccn2)CC1 [Example 97] ?
Reply: 0.32

----------
// reported IC50 per item
Sequence of the target: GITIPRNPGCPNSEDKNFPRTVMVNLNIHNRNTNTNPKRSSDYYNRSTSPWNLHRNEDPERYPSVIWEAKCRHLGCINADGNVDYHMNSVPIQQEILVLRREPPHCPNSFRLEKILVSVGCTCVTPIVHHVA
# unit: µM | format: bare number

Ask: Sample COCC(c1ccnc(NC(=O)[C@@H](NC(=O)c2nc(Br)ccc2C)[C@H]2CC[C@H](C)CC2)c1)N1C[C@@H](C(F)(F)F)NC1=O (single isomer, unassigned) [Example 94] — what was its IC50?
Reply: 4.86

Ask: Can you share its IC50? I mean this molecule: [2H]C(c1ccnc(NC(=O)[C@@H](NC(=O)OC(C)(C)C)[C@H]2CC[C@H](C)CC2)c1)N1C[C@@H](C(F)(F)F)NC1=O (stereo partly drawn) [Example 151]
Reply: 0.401

Ask: State the recorded IC50 for this entry: CC1(C)CN(Cc2ccnc(NC(=O)[C@@H](NC(=O)OC(C)(C)C)[C@H]3CC[C@H](C)CC3)c2)C(=O)N1 [Example 24]
Reply: 1.05

Ask: Please report the recorded IC50 for CC(C)n1nccc1C(=O)N[C@H](C(=O)Nc1cc(OC2CCNC2=O)ccn1)[C@H]1CC[C@H](C)CC1 (stereo partly drawn) [Example 119] .
Reply: 3.99

Ask: Look up IC50 for this molecule: C[C@H]1CC[C@H]([C@H](NC(=O)c2nonc2C2CC2)C(=O)Nc2cc(CN3C[C@@H](C(F)(F)F)NC3=O)ccn2)CC1 [Example 2]
Reply: 0.025

Ask: I have this molecule here, CCn1nccc1C(=O)N[C@H](C(=O)Nc1cc(C(COC)N2C[C@@H](C(F)(F)F)NC2=O)ccn1)[C@H]1CC[C@H](C)CC1 (single isomer, unassigned) [Example 124] , and I need its recorded IC50.
Reply: 0.02

----------
Biological target: human IL-17A (Homo sapiens, UniProt Q16552)
Sequence (Q16552 24-155): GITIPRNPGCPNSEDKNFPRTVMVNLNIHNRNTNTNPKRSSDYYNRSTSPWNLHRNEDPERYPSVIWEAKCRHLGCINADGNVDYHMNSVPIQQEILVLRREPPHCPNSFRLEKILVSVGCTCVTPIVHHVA
Quick list: log10 of IC50 per entry.
For clarity, the numbers are log10 values of IC50 expressed in nM.

Before answering, review these 8 worked examples.
Ask: Data request, read-out log10 of IC50, for COCC(c1ccnc(NC(=O)[C@@H](NC(=O)C(F)(F)c2ccccc2)[C@H]2CC[C@H](C)CC2)c1)N1C[C@@H](C(F)(F)F)NC1=O (single isomer, unassigned)
Reply: 1.79

Ask: # lookup: log10 of IC50 of [2H]C(c1ccnc(NC(=O)[C@@H](NC(=O)c2ccnn2C)[C@H]2CC[C@H](C)CC2)c1)N1C[C@@H](C(F)(F)F)NC1=O (some centres unmarked)
Reply: 1.72

Ask: Requested read-out: log10 of IC50. Entry: C[C@H]1CC[C@H]([C@H](NC(=O)c2ccnn2CCC(O)C(F)(F)F)C(=O)Nc2cc(CN3C[C@@H](C(F)(F)F)NC3=O)ccn2)CC1 (single isomer, unassigned)
Reply: 2.13

Ask: // returns reported log10 of IC50 for input Cc1nonc1C(=O)N[C@H](C(=O)Nc1cc(C(C)N2C[C@@H](C(F)(F)F)NC2=O)ccn1)C1CCC(F)(F)CC1 (single isomer, unassigned)
Reply: 1.90

Ask: Fill blank: measured log10 of IC50 of the molecule Cn1nccc1C(=O)N[C@H](C(=O)Nc1cc(CNC(=O)CCC(F)(F)F)ccn1)C(C1CC1)C1CC1 is ____.
Reply: 3.75

Ask: Recorded log10 of IC50 of COCC(c1ccnc(NC(=O)C(NC(=O)C(F)(F)c2cnccn2)C2CCC(C)CC2)c1)N1CC(C(F)(F)F)NC1=O (single isomer, unassigned) , please.
Reply: 1.52

Ask: Any idea what its log10 of IC50 is? The molecule is CCc1cnoc1C(=O)N[C@H](C(=O)Nc1cc(C(CC(F)(F)F)NC(=O)CCC(F)(F)F)ccn1)C1CCC(F)(F)CC1 (some centres unmarked)
Reply: 2.07

Ask: What value of log10 of IC50 has been reported for the following molecule? COC[C@H](c1ccnc(NC(=O)[C@H](COC(C)(C)C(F)(F)F)NC(=O)c2nonc2C2CC2)c1)N1C[C@@H](C(F)(F)F)NC1=O
Reply: 1.00

More entries:
Ask: Please report the recorded log10 of IC50 for COCC(c1ccnc(NC(=O)[C@@H](NC(=O)c2nonc2C2CC2)[C@H]2CC[C@H](C)CC2)c1)N1C[C@@H](C(F)(F)F)NC1=O (single isomer, unassigned) [Example 59] .
Reply: 1.79

Ask: Could you share which log10 of IC50 value was measured for O=C(N[C@H](C(=O)Nc1cc(C(C2CC2)N2C[C@@H](C(F)(F)F)NC2=O)ccn1)C1CCC(F)(F)CC1)c1nonc1C1CC1 (single isomer, unassigned) [Example 163] ?
Reply: 1.30

Ask: Looking for the measured log10 of IC50 of COCC(c1ccnc(NC(=O)[C@@H](NC(=O)OC(C)(C)C)[C@H]2CC[C@H](C)CC2)c1)N1C[C@@H](C(F)(F)F)NC1=O (single isomer, unassigned) , can you help?
Reply: 1.87

----------
This section presents molecules with their documented log10 of IC50 values.
Target: human IL-17A (Homo sapiens, UniProt Q16552)
Sequence (Q16552 24-155): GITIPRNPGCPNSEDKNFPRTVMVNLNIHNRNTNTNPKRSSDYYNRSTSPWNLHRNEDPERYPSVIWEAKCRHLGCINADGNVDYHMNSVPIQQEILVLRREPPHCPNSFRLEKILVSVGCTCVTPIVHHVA
In our notation, the value equals log10 of IC50 in nM.

Worked cases, answers included:
Ask: Give human IL-17A (Homo sapiens, UniProt Q16552) log10 of IC50 for Cn1nccc1C(=O)NC(C(=O)Nc1cc(Cc2ccn(C)c(=O)c2)ccn1)C1CCC(F)(F)CC1 (stereo not shown) [Example 54]
Reply: 3.68

Ask: Given the entry COCC(c1ccnc(NC(=O)[C@@H](NC(=O)c2ncsc2C#N)[C@H]2CC[C@H](C)CC2)c1)N1C[C@@H](C(F)(F)F)NC1=O (single isomer, unassigned) [Example 92] , what log10 of IC50 was observed with human IL-17A (Homo sapiens, UniProt Q16552)?
Reply: 2.73

Ask: For the record CC(C)(C)OC(=O)N1CCn2c(ccc2C(=O)N[C@H](C(=O)Nc2cc(CN3C[C@@H](C(F)(F)F)NC3=O)ccn2)C2CCC(F)(F)CC2)C1 [Example 11] , what value of log10 of IC50 is listed for human IL-17A (Homo sapiens, UniProt Q16552)?
Reply: 2.56

Ask: Form entry - test system: human IL-17A (Homo sapiens, UniProt Q16552); read-out: log10 of IC50; molecule: COC[C@H](c1ccnc(NC(=O)[C@@H](NC(=O)C(C)c2cccc(C#N)c2)C2CCC(F)(F)CC2)c1)N1C[C@@H](C(F)(F)F)NC1=O (stereo partly shown) [Example 205]
Reply: 2.54

Ask: // fetch human IL-17A (Homo sapiens, UniProt Q16552) log10 of IC50 for O=C(CCC(F)(F)F)NC(c1ccnc(NC(=O)[C@@H](NC(=O)c2nonc2C2CC2)C(C2CC2)C2CC2)c1)C1CC1 (single isomer, unassigned) [Example 40]
Reply: 1.96

Further cases:
Ask: What reported log10 of IC50 corresponds to COC[C@H](c1ccnc(NC(=O)[C@@H](NC(=O)c2ccnn2C)C2CCC(C(F)(F)F)CC2)c1)N1C[C@@H](C(F)(F)F)NC1=O (stereo partly shown) [Example 302] on human IL-17A (Homo sapiens, UniProt Q16552)?
Reply: 1.64

Ask: Find the measured log10 of IC50: item O=C(CCC(F)(F)F)NC(c1ccnc(NC(=O)C(NC(=O)c2nonc2C2CC2)C2CCC(F)(F)CC2)c1)C1CC1 (stereo not shown) [Example 46] , target or system human IL-17A (Homo sapiens, UniProt Q16552).
Reply: 2.79

Ask: // map CCc1nonc1C(=O)N[C@H](C(=O)Nc1cc([C@@H](CC)N2C[C@@H](C(F)(F)F)NC2=O)ccn1)C1CCC(F)(F)CC1 [Example 209] to recorded log10 of IC50 (system: human IL-17A (Homo sapiens, UniProt Q16552))
Reply: 1.36

Ask: Form: Entry = O=C(N[C@H](C(=O)Nc1cc(C(C2CC2)N2C[C@@H](C(F)(F)F)NC2=O)ccn1)C1CCC(F)(F)CC1)c1nonc1C1CC1 (single isomer, unassigned) [Example 162] | System = human IL-17A (Homo sapiens, UniProt Q16552) | log10 of IC50 = ____
Reply: 2.65

Ask: Kindly state the measured log10 of IC50 obtained for CC[C@H](c1ccnc(NC(=O)[C@@H](NC(=O)c2ccnn2C)C2CCC(F)(F)CC2)c1)N1C[C@@H](C(F)(F)F)NC1=O [Example 214] with human IL-17A (Homo sapiens, UniProt Q16552).
Reply: 1.66

Ask: // lookup log10 of IC50 | system=human IL-17A (Homo sapiens, UniProt Q16552) | key= CC(C)n1nccc1C(=O)N[C@H](C(=O)Nc1cc(C(NC(=O)CCC(F)(F)F)C2CC2)ccn1)C(C1CC1)C1CC1 (single isomer, unassigned) [Example 43]
Reply: 2.23

Ask: Param readout = log10 of IC50; param system = human IL-17A (Homo sapiens, UniProt Q16552); param query = COCC(NC(=O)CCC(F)(F)F)c1ccnc(NC(=O)[C@@H](NC(=O)c2ccnn2C2CC2)C2CCC(F)(F)CC2)c1 (single isomer, unassigned) [Example 139] ; response: value
Reply: 2.42

Ask: // lookup log10 of IC50 | system=human IL-17A (Homo sapiens, UniProt Q16552) | key= CC(C)(C)OC(=O)N[C@H](C(=O)Nc1cc(C(NC(=O)CCC(F)(F)F)C2CC2)ccn1)C1CCC(F)(F)CC1 (single isomer, unassigned) [Example 74]
Reply: 3.42

Ask: Find the measured log10 of IC50: item COC[C@H](c1ccnc(NC(=O)C(NC(=O)c2nocc2OCC(F)F)C2CCC(F)CC2)c1)N1C[C@@H](C(F)(F)F)NC1=O (single isomer, unassigned) [Example 281] , target or system human IL-17A (Homo sapiens, UniProt Q16552).
Reply: 2.07

Ask: # returns recorded log10 of IC50 (system: human IL-17A (Homo sapiens, UniProt Q16552)) for COC[C@H](c1ccnc(NC(=O)[C@@H](NC(=O)c2nocc2OCC(F)F)C2CCC(F)(F)CC2)c1)N1C[C@@H](C(F)(F)F)NC1=O [Example 192]
Reply: 2.02

Ask: What value of log10 of IC50 on human IL-17A (Homo sapiens, UniProt Q16552) does O=C(N[C@H](C(=O)Nc1cc(CN2C[C@@H](C(F)(F)F)NC2=O)ccn1)C(C1CC1)C1CC1)c1nonc1C1CC1 [Example 16] have?
Reply: 2.20

Ask: For the record CCc1nocc1C(=O)N[C@H](C(=O)Nc1cc([C@@H](COC)N2C[C@@H](C(F)(F)F)NC2=O)ccn1)C1CCC(C(F)(F)F)CC1 (stereo partly shown) [Example 300] , what value of log10 of IC50 is listed for human IL-17A (Homo sapiens, UniProt Q16552)?
Reply: 1.59
